The origin of these recorded values is patent US20090130105A1.

For each record, write down the corresponding Kd (1/sec), off-rate as tabulated (XWU092 = 1.00).
# TESTED ON: T1, human IGF-1R(1-903)-Fc (human, UniProt P08069 31-933)
# T1 construct: also called hIGF-1R-Fc; SDWT; not shown: human IgG1 Fc, C-terminal tag
# T1 sequence (P08069 31-933): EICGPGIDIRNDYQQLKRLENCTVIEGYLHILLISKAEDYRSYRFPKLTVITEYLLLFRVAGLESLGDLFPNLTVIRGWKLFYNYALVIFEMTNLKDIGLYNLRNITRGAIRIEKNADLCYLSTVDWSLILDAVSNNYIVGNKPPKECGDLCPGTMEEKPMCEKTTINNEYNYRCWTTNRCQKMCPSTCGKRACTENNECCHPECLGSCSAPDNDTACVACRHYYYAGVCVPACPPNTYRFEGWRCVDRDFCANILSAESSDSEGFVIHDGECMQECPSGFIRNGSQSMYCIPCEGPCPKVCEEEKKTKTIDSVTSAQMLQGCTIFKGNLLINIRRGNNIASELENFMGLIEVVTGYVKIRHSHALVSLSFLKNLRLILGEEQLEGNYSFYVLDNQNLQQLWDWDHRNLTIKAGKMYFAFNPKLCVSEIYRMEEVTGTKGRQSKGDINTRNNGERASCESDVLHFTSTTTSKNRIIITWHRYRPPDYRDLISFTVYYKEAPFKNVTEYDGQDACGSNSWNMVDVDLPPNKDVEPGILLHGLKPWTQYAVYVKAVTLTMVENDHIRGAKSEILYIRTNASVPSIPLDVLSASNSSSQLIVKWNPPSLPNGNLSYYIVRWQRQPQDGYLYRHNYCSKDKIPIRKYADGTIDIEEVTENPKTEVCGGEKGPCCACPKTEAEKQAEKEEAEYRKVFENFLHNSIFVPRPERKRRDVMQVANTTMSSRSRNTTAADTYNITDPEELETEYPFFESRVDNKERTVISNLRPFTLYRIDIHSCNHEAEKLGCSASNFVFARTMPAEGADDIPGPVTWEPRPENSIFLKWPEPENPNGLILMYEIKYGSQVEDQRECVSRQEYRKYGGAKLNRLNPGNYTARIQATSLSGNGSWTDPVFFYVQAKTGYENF
# PROTOCOL DETAILS: biolayer interferometry (Octet), IGF-1R Fc on Protein A sensors, scFv culture supernatant
# Parameters: unit not given here
Give bare numbers.

binder="MJF035, C06 (VL/GS3/VH) scFv with VL S72N (scFv, Kabat positions) scFv: DIQMTQSPLSLSASVGDRVTITCQASRDIRNYLNWYQQKPGKAPKLLIYDASSLQTGVPSRFGGSGSGTDFNFTIGSLQPEDIATYYCQQFDSLPHTFGQGTKLEIKGGGGSGGGGSGGGGSEVQLLESGGGLVQPGGSLRLSCAASGFTFSIYRMQWVRQAPGKGLEWVSGISPSGGTTWYADSVKGRFTISRDNSKNTLYLQMNSLRAEDTAVYYCARWSGGSGYAFDIWGQGTMVTVSSDDDKSFLEQKLISEEDLNSAVDHHHHHH" measured=0.54

Moving on to another binder below.
Query: Fill in: Kd (1/sec), off-rate as tabulated (XWU092 = 1.00) of MJF017, C06 (VL/GS3/VH) scFv with VL T74S (scFv, Kabat positions) scFv: DIQMTQSPLSLSASVGDRVTITCQASRDIRNYLNWYQQKPGKAPKLLIYDASSLQTGVPSRFGGSGSGTDFSFSIGSLQPEDIATYYCQQFDSLPHTFGQGTKLEIKGGGGSGGGGSGGGGSEVQLLESGGGLVQPGGSLRLSCAASGFTFSIYRMQWVRQAPGKGLEWVSGISPSGGTTWYADSVKGRFTISRDNSKNTLYLQMNSLRAEDTAVYYCARWSGGSGYAFDIWGQGTMVTVSSDDDKSFLEQKLISEEDLNSAVDHHHHHH is ___
Result: 1.02
